- assayed-system: human NAMPT enzyme (His-hNAMPT) (Homo sapiens (Human), UniProt P43490)
- Sequence (P43490 whole entry): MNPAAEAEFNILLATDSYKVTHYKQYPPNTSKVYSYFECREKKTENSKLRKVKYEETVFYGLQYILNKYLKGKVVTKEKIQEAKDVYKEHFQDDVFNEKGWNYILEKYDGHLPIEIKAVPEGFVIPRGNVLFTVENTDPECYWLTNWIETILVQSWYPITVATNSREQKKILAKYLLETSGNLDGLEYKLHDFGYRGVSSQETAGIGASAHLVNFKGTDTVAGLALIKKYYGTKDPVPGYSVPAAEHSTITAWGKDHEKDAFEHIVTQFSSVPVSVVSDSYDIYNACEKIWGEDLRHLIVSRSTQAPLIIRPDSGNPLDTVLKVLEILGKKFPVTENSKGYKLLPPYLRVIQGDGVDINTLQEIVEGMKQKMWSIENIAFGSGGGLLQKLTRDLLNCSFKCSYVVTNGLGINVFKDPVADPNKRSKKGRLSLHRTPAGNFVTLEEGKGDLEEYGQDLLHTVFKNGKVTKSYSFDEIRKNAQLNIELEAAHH
- measurement-protocol: NAMPT enzymatic inhibition assay (fluorescence, NADH product)
- Assay type: biochemical
- condition-description: [BPS]; read-out: NAMPT IC50 (μM) [BPS]
readout-label: IC50

# compound, IC50
rows = [
    ("Nc1ccc(/C=C/C(=O)NCC[C@@H]2[C@H]3CN(C(=O)OC4Cc5ccccc5C4)C[C@@H]23)cn1 [Example 51]", "0.01 to 0.49 µM"),
    ("O=C(NCC[C@@H]1[C@H]2CN(C(=O)C3CCOCC3)C[C@@H]12)c1cc2ccncc2o1 [Example 100]", "0.5 to 0.99 µM"),
    ("Cc1nc(C)c(C(=O)N2C[C@@H]3[C@@H](CCNC(=O)c4cnc5nccn5c4)[C@@H]3C2)o1 [Example 108]", "0.01 to 0.49 µM"),
]

Give IC50 (human NAMPT enzyme (His-hNAMPT) (Homo sapiens (Human), UniProt P43490)) of the following compound: CC(C)(C)OC(=O)N1CCC2CC(CNC(=O)NCc3cccnc3)CC2C1 (stereo not shown) [Example 271]
1 to 29 µM

Give IC50 (human NAMPT enzyme (His-hNAMPT) (Homo sapiens (Human), UniProt P43490)) of the following compound: CC1(OC(=O)N2C[C@@H]3[C@@H](CCNC(=O)N4Cc5ccccc5C4)[C@@H]3C2)COC1 [Example 230]
0.01 to 0.49 µM

Give IC50 (human NAMPT enzyme (His-hNAMPT) (Homo sapiens (Human), UniProt P43490)) of the following compound: CC1(OC(=O)N2C[C@@H]3[C@@H](CCNC(=O)/C=C/c4ccncc4)[C@@H]3C2)COC1 [Example 35]
1 to 29 µM

Give IC50 (human NAMPT enzyme (His-hNAMPT) (Homo sapiens (Human), UniProt P43490)) of the following compound: Nc1ccc(/C=C/C(=O)NCC[C@@H]2[C@H]3CN(S(=O)(=O)C4CCCC4)C[C@@H]23)cn1 [Example 48]
0.01 to 0.49 µM
